System: HEK293FT dCK*-only
assay-remarks: relative growth in counter assay (no AraC = 100%, AraC + DMSO = 0%); higher = more growth rescue independent of IKZF1
test-context: compound concentration: 5 uM; AraC concentration: 0.3 uM; overnight pretreatment + 4 days AraC
result-type: relative growth in counter assay (%)
Numbers only, in %.

# annotated cases, reported relative growth in counter assay shown
- Clc1ccc(COC(Cn2ccnc2)c2ccc(Cl)cc2Cl)c(Cl)c1 (stereo not given) [Miconazole]: 1.72
- CCN(c1ccccc1)c1cc(NC)[n+](C)c(C)n1: 3.09
- CC(C)n1nc(-c2ccc3oc(N)nc3c2)c2c(N)ncnc21: -33.3

Dear colleague, could you send me relative growth in counter assay for each of the items below? Thanks.
1. OC1(c2ccc(Cl)c(C(F)(F)F)c2)CCN(CCCC(c2ccc(F)cc2)c2ccc(F)cc2)CC1
2. Clc1ccc2c(NCCNc3ccnc4cc(Cl)ccc34)ccnc2c1
3. c1ccc(CNc2nc(NCc3ccccc3)c3ccccc3n2)cc1
4. CC(CN(C)C)CN1c2ccccc2Sc2ccccc21 (stereo not given) [trimeprazine]
5. Clc1ccc(C(Cn2ccnc2)OCc2csc3c(Cl)cccc23)c(Cl)c1 (stereo not given) [Sertaconazole]
6. COc1ccc(CCCOC(Cn2ccnc2)c2ccc(OC)cc2)cc1 (stereo not given)
7. CCCNC(=O)NS(=O)(=O)c1ccc(Cl)cc1

1: -26; 2: -2.86; 3: -18.5; 4: 7.5; 5: 3.66; 6: -32.6; 7: -2.41

Values from the supplement of paper PMC12340641
